From: patent US10174202B2

- test: Absorption spectroscopy (UV/Vis)
- Assay type: physicochemical
- run.parameters: in aq. PBS, pH 7.4
Counter-ions that a name gives are not always drawn.
Exam item: assign Yes to entries whose Absorption max. is below 600 nm and No to entries at or above 600 nm. Note that a value of exactly 600 nm receives No.

Past entries and their recorded results:
compound	label
CCOP(=O)(CC(=O)[O-])c1c2ccc(N(C)C)cc2[o+]c2cc(N(C)C)ccc12 (stereo not shown) [Compound 14]	No
COP(=O)(C1=c2cc3c4c(c2Oc2c1cc1c5c2CCCN5CCC1)CCC[N+]=4CCC3)N(C(C)C)C(C)C (stereo not shown) [Compound 17, trifluoroacetate]	No

# strict comparison: is reported Absorption max. < 600 nm? input = CN(C)c1ccc2c([PH](=O)O)c3ccc(N(C)C)cc3[n+](CCCC(=O)O)c2c1.O=C([O-])C(F)(F)F [Compound 23]
Yes

# strict comparison: is reported Absorption max. < 600 nm? input = CC[N+](CC)=c1ccc2c(P(=O)(OC)OC)c3c(oc-2c1)-c1ccc(N(C)C)cc1CC3.O=C([O-])C(F)(F)F [Compound 20]
No
